Biological target: T1, human Trop-2 expressed on cell surface (human, UniProt P09758 27-323)
T1 sequence (looked up): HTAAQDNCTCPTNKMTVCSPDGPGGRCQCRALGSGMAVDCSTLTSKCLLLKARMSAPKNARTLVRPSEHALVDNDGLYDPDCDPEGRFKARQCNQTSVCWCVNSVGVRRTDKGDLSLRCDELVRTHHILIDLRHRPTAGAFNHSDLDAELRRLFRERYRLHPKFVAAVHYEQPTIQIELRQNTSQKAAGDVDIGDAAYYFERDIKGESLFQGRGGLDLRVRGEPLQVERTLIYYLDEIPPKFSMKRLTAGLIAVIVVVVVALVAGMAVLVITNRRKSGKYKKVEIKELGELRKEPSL
Experiment: cell-based or functional assay
// reported EC50 of ADCC (NFAT-CD16 reporter), MCF-7 per item
Quick note: give the figure in nM, leave out the unit.

binder	EC50 of ADCC (NFAT-CD16 reporter), MCF-7 (nM)
66A1 (antibody, V domains shown, Rabbit-derived clone; LEM construct: VH + rabbit IgG CH1 + human IgG1 CH2-CH3) VH: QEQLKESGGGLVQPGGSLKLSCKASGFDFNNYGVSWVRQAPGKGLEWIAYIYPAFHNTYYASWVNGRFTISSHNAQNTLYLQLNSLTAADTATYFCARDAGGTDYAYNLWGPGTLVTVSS VL: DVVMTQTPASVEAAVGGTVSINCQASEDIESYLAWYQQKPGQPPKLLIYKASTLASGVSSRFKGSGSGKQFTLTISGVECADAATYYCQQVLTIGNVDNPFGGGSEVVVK	0.22
1D10 (antibody, V domains shown, Rabbit-derived clone; LEM construct: VH + rabbit IgG CH1 + human IgG1 CH2-CH3) VH: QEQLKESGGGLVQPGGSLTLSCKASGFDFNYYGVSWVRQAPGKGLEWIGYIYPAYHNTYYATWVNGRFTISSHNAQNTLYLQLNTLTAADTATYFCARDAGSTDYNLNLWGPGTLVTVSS VL: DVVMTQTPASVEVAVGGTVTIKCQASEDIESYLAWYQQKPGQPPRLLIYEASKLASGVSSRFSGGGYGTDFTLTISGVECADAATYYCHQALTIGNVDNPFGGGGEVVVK	0.28

Challenge: What does the data say about its EC50 of ADCC (NFAT-CD16 reporter), MCF-7? Entry: 10A9-2 (antibody, V domains shown) VH: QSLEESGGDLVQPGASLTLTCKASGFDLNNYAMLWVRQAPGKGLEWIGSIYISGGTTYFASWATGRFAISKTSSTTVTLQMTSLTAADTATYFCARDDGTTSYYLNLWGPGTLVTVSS VL: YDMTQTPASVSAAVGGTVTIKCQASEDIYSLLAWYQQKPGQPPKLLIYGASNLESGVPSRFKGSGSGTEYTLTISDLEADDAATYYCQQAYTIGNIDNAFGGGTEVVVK
Response given: 0.28
